This listing pairs compounds with measured inhibition at 0.3 µM.
- Subject Of Test: vascular endothelial growth factor receptor-2 (VEGFR2) cytoplasmic domain (Homo sapiens)
- Construct: recombinant baculovirus-expressed vascular endothelial growth factor receptor-2 (VEGFR2) cytoplasmic domain; made in house
- Sequence (P35968 786-1356 limits assumed, species assumed): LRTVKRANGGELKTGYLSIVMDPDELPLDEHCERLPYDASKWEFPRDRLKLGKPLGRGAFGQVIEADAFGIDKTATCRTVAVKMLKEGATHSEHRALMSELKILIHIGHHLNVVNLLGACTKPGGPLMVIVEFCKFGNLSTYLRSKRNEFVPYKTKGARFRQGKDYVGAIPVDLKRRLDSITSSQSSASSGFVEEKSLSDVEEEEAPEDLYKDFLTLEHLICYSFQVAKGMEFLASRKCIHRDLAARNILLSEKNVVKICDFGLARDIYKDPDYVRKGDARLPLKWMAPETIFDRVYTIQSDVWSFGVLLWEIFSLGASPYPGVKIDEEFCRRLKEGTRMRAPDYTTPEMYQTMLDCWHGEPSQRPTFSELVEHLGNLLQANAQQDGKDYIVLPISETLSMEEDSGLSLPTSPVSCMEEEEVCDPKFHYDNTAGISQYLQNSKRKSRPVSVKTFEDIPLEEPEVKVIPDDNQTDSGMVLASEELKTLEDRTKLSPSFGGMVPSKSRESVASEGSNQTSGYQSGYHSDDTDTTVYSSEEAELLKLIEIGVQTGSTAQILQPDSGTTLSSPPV
- Experimental Protocol: Vascular Endothelial Growth Factor Receptor-2 kinase inhibition assay (TRF)
- Type: biochemical
- Experimental Setup: 300 nM compound; 40 μM ATP; read-out: VEGFR-2 % inhibition @ 300 nM
Give a bare numeral; the unit % is implied.

[
  {
    "Compound": "Cn1c2ccccc2c2c(=O)[nH]nc(-c3cc4ccccc4s3)c21 [Example 11b]",
    "Subject Of Test": "vascular endothelial growth factor receptor-2 (VEGFR2) cytoplasmic domain (Homo sapiens)",
    "inhibition at 0.3 µM (%)": 0
  }
]

IN: What does the data say about its inhibition at 0.3 µM? Entry: Cn1c2ccccc2c2c(=O)[nH]nc(-c3ccc4ccccc4c3)c21 [Example 11c]
OUT: 3

IN: What does the data say about its inhibition at 0.3 µM? Entry: O=c1[nH]nc(-c2cc3ccccc3o2)c2[nH]c3ccccc3c12 [Example 4k]
OUT: 0

IN: What does the data say about its inhibition at 0.3 µM? Entry: O=c1[nH]nc(-c2nccs2)c2[nH]c3ccccc3c12 [Example 4f]
OUT: 0

IN: What does the data say about its inhibition at 0.3 µM? Entry: O=c1[nH]nc(-c2cc3ccccc3s2)c2c1[nH]c1ccccc12 [Example 14b]
OUT: 3

IN: What does the data say about its inhibition at 0.3 µM? Entry: Cn1ccnc1-c1n[nH]c(=O)c2c1[nH]c1ccccc12 [Example 4g]
OUT: 0

IN: What does the data say about its inhibition at 0.3 µM? Entry: Cn1c(-c2n[nH]c(=O)c3c2[nH]c2ccccc23)nc2ccccc21 [Example 4h]
OUT: 0

IN: What does the data say about its inhibition at 0.3 µM? Entry: Cc1ccc(-c2n[nH]c(=O)c3c2[nH]c2ccccc23)o1 [Example 4e]
OUT: 4

IN: What does the data say about its inhibition at 0.3 µM? Entry: O=c1[nH]nc(-c2cc3ccccc3o2)c2[nH]c3cc(OCc4ccccc4)ccc3c12 [Example 4p]
OUT: 14

IN: What does the data say about its inhibition at 0.3 µM? Entry: O=c1[nH]nc(-c2ccncc2)c2[nH]c3ccccc3c12 [Example 4d]
OUT: 18

IN: What does the data say about its inhibition at 0.3 µM? Entry: COc1ccc2[nH]c3c(-c4cc5ccccc5o4)n[nH]c(=O)c3c2c1 [Example 4l]
OUT: 9

IN: What does the data say about its inhibition at 0.3 µM? Entry: O=c1[nH]nc(-c2ccccn2)c2[nH]c3ccccc3c12 [Example 4b]
OUT: 7

IN: What does the data say about its inhibition at 0.3 µM? Entry: O=c1[nH]nc(-c2cc3ccccc3o2)c2[nH]c3ccc(O)cc3c12 [Example 4q]
OUT: 21

IN: What does the data say about its inhibition at 0.3 µM? Entry: O=c1[nH]nc(-c2cc3ccccc3o2)c2[nH]c3cc4c(cc3c12)OCO4 [Example 4m]
OUT: 0

IN: What does the data say about its inhibition at 0.3 µM? Entry: O=c1[nH]nc(-c2cnc3ccccc3n2)c2[nH]c3ccccc3c12 [Example 4j]
OUT: 0

IN: What does the data say about its inhibition at 0.3 µM? Entry: O=c1[nH]nc(-c2cc3ccccc3o2)c2[nH]c3cccc(OCc4ccccc4)c3c12 [Example 4n]
OUT: 2

IN: What does the data say about its inhibition at 0.3 µM? Entry: Cn1c2ccccc2c2c(=O)[nH]nc(-c3cc4ccccc4o3)c21 [Example 11a]
OUT: 0

IN: What does the data say about its inhibition at 0.3 µM? Entry: O=c1[nH]nc(-c2ccc(-c3ccccc3)cc2)c2[nH]c3ccccc3c12 [Example 4i]
OUT: 16

IN: What does the data say about its inhibition at 0.3 µM? Entry: O=c1[nH]nc(-c2ccc3ccccc3c2)c2c1[nH]c1ccccc12 [Example 14c]
OUT: 1

IN: What does the data say about its inhibition at 0.3 µM? Entry: O=c1[nH]nc(-c2cccnc2)c2[nH]c3ccccc3c12 [Example 4c]
OUT: 14

IN: What does the data say about its inhibition at 0.3 µM? Entry: O=c1[nH]nc(-c2cc3ccccc3o2)c2[nH]c3ccc(OCc4ccccc4)cc3c12 [Example 4o]
OUT: 10

Hello, the source for this data is patent US7732447B2, in case you need it.
